target.or.system: Bromodomain-containing protein 4 (Homo sapiens, UniProt O60885)
assay.text: Inhibition of GST-tagged BRD4 bromodomain (unknown origin) using biotinylated histone H4KAc peptide (1 to 21 residues) as substrate by HTRF assay
readout.name: IC50 (µM)
Numeric answer only, unit µM assumed.

What value of measured IC50 is listed for CCN1CCc2c(sc3nc(-c4cc(C)c(O)c(C)c4)[nH]c(=O)c23)C1 ?
5.6

Next compound: Cc1cc(-c2nc3sc4c(c3c(=O)[nH]2)CCN(C)C4)cc(C)c1OCCCC(=O)NO
1.17

Proceed to Cc1cc(-c2nc3sc4c(c3c(=O)[nH]2)CCN(C)C4)cc(C)c1OCc1ccc(/C=C/C(=O)NO)cc1
1.19

And then Cc1cc(-c2nc3sc4c(c3c(=O)[nH]2)CCN(C)C4)cc(C)c1OCc1ccc(C(=O)NO)cc1 , what is it?
1.77

Input O=c1[nH]c(-c2ccc(O)cc2)nc2sc3c(c12)CCC3
9.28

// same read-out, input: Cc1cc(-c2nc3sc4c(c3c(=O)[nH]2)CCN(C)C4)cc(C)c1O
0.85

Let us now turn to COC(=O)CCCN1CCc2c(sc3nc(-c4c(C)noc4C)[nH]c(=O)c23)C1
5.93

Try CN1CCc2c(sc3nc(-c4ccc(O)cc4)[nH]c(=O)c23)C1 next.
6.31

Next entry: COC(=O)CCCCCN1CCc2c(sc3nc(-c4c(C)noc4C)[nH]c(=O)c23)C1
3.62

Now the same for Cc1cc(-c2nc3sc4c(c3c(=O)[nH]2)CCN(C)C4)cc(C)c1OCc1cccc(C(=O)Nc2ccccc2N)c1
3.48

Now the compound Cc1cc(-c2nc3sc4c(c3c(=O)[nH]2)CCN(C)C4)cc(C)c1OCc1cccc(C(=O)NO)c1
1.93

Input Cc1cc(-c2nc3sc4c(c3c(=O)[nH]2)CCC4)cc(C)c1O
2.64

---

target.or.system: Bromodomain-containing protein 4 (Homo sapiens, UniProt O60885)
assay.text: Inhibition of human recombinant His-tagged BRD4 BD1 domain using H-SGRGK(Ac)GGK(Ac)GLGK-(Ac)GGAK(Ac)RHRK(Biotin)-OH as substrate preincubated with enzyme for 30 mins followed by substrate addition measured after 30 mins by AlphaScreen assay
readout.name: IC50 (nM)
Reply numerically in nM, unit not repeated.

Can you share its IC50? I mean this compound: Cc1cc(-c2nc3sc4c(c3c(=O)[nH]2)CCN(C)C4)cc(C)c1OCCCCCC(=O)NO
1100

---

Let's go through some recorded pIC50 values for UniProtKB Q92769 together.
Sequence (Q92769 whole entry): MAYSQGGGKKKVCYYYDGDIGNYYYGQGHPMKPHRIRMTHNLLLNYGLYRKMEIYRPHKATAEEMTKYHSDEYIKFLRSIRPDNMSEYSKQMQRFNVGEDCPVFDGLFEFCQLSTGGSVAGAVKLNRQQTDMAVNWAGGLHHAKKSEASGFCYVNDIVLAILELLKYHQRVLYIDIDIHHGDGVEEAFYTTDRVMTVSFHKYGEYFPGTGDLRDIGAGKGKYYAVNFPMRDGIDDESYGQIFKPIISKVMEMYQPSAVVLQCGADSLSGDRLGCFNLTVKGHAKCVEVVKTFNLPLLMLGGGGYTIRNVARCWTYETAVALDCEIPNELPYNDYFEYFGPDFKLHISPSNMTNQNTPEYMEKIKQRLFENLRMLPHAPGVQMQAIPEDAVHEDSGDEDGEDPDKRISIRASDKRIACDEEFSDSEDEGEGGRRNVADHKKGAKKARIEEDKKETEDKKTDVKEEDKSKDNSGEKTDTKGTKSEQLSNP
pIC50 here: minus log base 10 of the concentration, concentration in moles per litre.

What value of pIC50 has been reported for the following compound? Cc1noc(C)c1-c1nc2sc3c(c2c(=O)[nH]1)CCN(CCCCCC(=O)Nc1ccccc1N)C3
6.95

Then what about the compound Cc1noc(C)c1-c1nc2sc3c(c2c(=O)[nH]1)CCN(CCCCCC(=O)NO)C3 ?
6.87

And the next one, Cc1noc(C)c1-c1nc2sc3c(c2c(=O)[nH]1)CCN(CC(=O)Nc1ccccc1N)C3 ?
6.45

Proceed to Cc1cc(-c2nc3sc4c(c3c(=O)[nH]2)CCN(C)C4)cc(C)c1OCc1ccc(/C=C/C(=O)NO)cc1
7.01

Ok, now Cc1cc(-c2nc3sc4c(c3c(=O)[nH]2)CCN(C)C4)cc(C)c1OCCCCCC(=O)NO
7.24

Try this compound too: Cc1cc(-c2nc3sc4c(c3c(=O)[nH]2)CCN(C)C4)cc(C)c1OCCCC(=O)NO
6.80

Also check Cc1cc(-c2nc3sc4c(c3c(=O)[nH]2)CCN(C)C4)cc(C)c1OCc1ccc(C(=O)Nc2ccccc2N)cc1
6.85

Thanks! And Cc1noc(C)c1-c1nc2sc3c(c2c(=O)[nH]1)CCN(CC(=O)NO)C3 ?
6.31

Proceed to Cc1cc(-c2nc3sc4c(c3c(=O)[nH]2)CCN(C)C4)cc(C)c1OCCCCCC(=O)Nc1ccccc1N
6.77
